Entries and their cytotoxicity values follow.
Tested on: CRL-8155 human lymphocytic cells
stated_conditions: CRL-8155 cell line, 48 hours

compound: CC(C)(C)n1nc(-c2ccc3nc(OC4CCC4)ccc3c2)c(C(N)=O)c1N [Compound 37]
system_name: CRL-8155 human lymphocytic cells
cytotoxicity: >40 µM

compound: COc1ccc2cc(-c3nn(C(C)(C)C)c(N)c3C(N)=O)cnc2c1 [Compound 28]
system_name: CRL-8155 human lymphocytic cells
cytotoxicity: >40 µM

compound: CCCOc1ccc2cc(-c3nn(C(C)(C)C)c(N)c3C(N)=O)cnc2c1 [Compound 31]
system_name: CRL-8155 human lymphocytic cells
cytotoxicity: >40 µM

compound: CCOc1ccc2cc(-c3nn(C4CCC4)c(N)c3C(N)=O)cnc2c1 [Compound 7]
system_name: CRL-8155 human lymphocytic cells
cytotoxicity: >40 µM

compound: CCOc1ccc2cc(-c3nn(C(C)(C)C)c(N)c3C(N)=O)ccc2n1 [Compound 17]
system_name: CRL-8155 human lymphocytic cells
cytotoxicity: >40 µM

compound: CCOc1ccc2cc(-c3nn(CC4CC4)c(N)c3C(N)=O)cnc2c1 [Compound 6]
system_name: CRL-8155 human lymphocytic cells
cytotoxicity: >40 µM

compound: CCOc1ccc2cc(-c3nn(C4CCCCCC4)c(N)c3C(N)=O)cnc2c1 [Compound 11]
system_name: CRL-8155 human lymphocytic cells
cytotoxicity: >40 µM

compound: CCOc1ccc2cc(-c3nn(CC(C)(C)CO)c(N)c3C(N)=O)ccc2n1 [Compound 22]
system_name: CRL-8155 human lymphocytic cells
cytotoxicity: >40 µM

compound: CC(C)(C)n1nc(-c2cnc3cc(OCC4CC4)ccc3c2)c(C(N)=O)c1N [Compound 32]
system_name: CRL-8155 human lymphocytic cells
cytotoxicity: >40 µM

compound: CCOc1ccc2cc(-c3nn(CC(C)(C)CO)c(N)c3C(N)=O)cnc2c1 [Compound 16]
system_name: CRL-8155 human lymphocytic cells
cytotoxicity: >40 µM

compound: CC(C)(C)n1nc(-c2cnc3cc(F)ccc3c2)c(C(N)=O)c1N [Compound 23]
system_name: CRL-8155 human lymphocytic cells
cytotoxicity: >40 µM

* * *

Tested on: CRL-8155 human lymphocytic cells
stated_conditions: CRL-8155 cell line, 48 hours
cytotoxicity values by entry

molecule_smiles: CCOc1ccc2cc(-c3nn(C(C)(C)C)c(N)c3C(N)=O)cnc2c1
cytotoxicity: >30 µM

molecule_smiles: CCOc1ccc2cc(-c3nn(CC4CC4)c(N)c3C(N)=O)ccc2n1
cytotoxicity: >40 µM

molecule_smiles: CC(C)Oc1ccc2cc(-c3nn(C(C)(C)C)c(N)c3C(N)=O)cnc2c1
cytotoxicity: >40 µM

molecule_smiles: CC(C)(C)n1nc(-c2ccc3nc(OC4CC4)ccc3c2)c(C(N)=O)c1N
cytotoxicity: >40 µM

molecule_smiles: CCOc1ccc2cc(-c3nn(C4CCCC4)c(N)c3C(N)=O)cnc2c1
cytotoxicity: >40 µM

* * *

method_description: Brain penetration experiment
Type: in vivo, mice
stated_conditions: mouse, ip, 5 mg/kg

molecule_smiles: CCOc1ccc2cc(-c3nn(C(C)(C)C)c(N)c3C(N)=O)cnc2c1
Kp: 0.158
